# system-tested: T1, Fc fused human IL-18Rα (human, UniProt Q13478 19-329, limits assumed)
# T1 construct: also called IL-18Rα monomer; IL-18 receptor alpha; not shown: Fc part
# T1 sequence (looked up): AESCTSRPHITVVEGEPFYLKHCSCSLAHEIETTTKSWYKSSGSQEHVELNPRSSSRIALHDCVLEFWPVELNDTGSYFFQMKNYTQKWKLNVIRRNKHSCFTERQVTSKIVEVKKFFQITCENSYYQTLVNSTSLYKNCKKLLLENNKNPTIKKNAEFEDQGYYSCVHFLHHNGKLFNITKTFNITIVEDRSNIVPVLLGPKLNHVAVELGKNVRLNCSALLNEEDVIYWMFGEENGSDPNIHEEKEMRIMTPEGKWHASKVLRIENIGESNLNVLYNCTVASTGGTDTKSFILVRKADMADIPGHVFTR
# experiment-notes: SPR, Fc-IL-18Rα captured, 1:1 model
property: koff (s⁻¹)
Number only, in s⁻¹; omit the unit.

{"binder": "Modified IL-18 polypeptide of SEQ ID NO: 71 with a 30 kDa PEG attached at residue C68 (E6K, C38S, K53A, C68-30kDPEG) (ligand, 30 kDa PEG on Cys 68 (30 kDa DBCO-polyethylene glycol clicked to a bromoacetamido-PEG5-azide linker on the cysteine), also called 71 + PEG) YFGKLKSKLSVIRNLNDQVLFIDQGNRPLFEDMTDSDSRDNAPRTIFIISMYADSQPRGMAVTISVKCEKISTLSCENKIISFKEMNPPDNIKDTKSDIIFFQRSVPGHDNKMQFESSSYEGYFLACEKERDLFKLILKKEDELGDRSIMFTVQNED", "koff, s⁻¹": 0.0217}
{"binder": "Modified IL-18 polypeptide of SEQ ID NO: 18 (E06K, K53A, T63A) (ligand) YFGKLKSKLSVIRNLNDQVLFIDQGNRPLFEDMTDSDCRDNAPRTIFIISMYADSQPRGMAVAISVKCEKISTLSCENKIISFKEMNPPDNIKDTKSDIIFFQRSVPGHDNKMQFESSSYEGYFLACEKERDLFKLILKKEDELGDRSIMFTVQNED", "koff, s⁻¹": 0.00573}
{"binder": "Modified IL-18 polypeptide of SEQ ID NO: 16 (C38S, C68S, C76S, C127S, K70C) (ligand) YFGKLESKLSVIRNLNDQVLFIDQGNRPLFEDMTDSDSRDNAPRTIFIISMYKDSQPRGMAVTISVKSECISTLSSENKIISFKEMNPPDNIKDTKSDIIFFQRSVPGHDNKMQFESSSYEGYFLASEKERDLFKLILKKEDELGDRSIMFTVQNED", "koff, s⁻¹": 0.0158}
{"binder": "Modified IL-18 polypeptide of SEQ ID NO: 15 (C38S, C68S, C76S, C127S) (ligand) YFGKLESKLSVIRNLNDQVLFIDQGNRPLFEDMTDSDSRDNAPRTIFIISMYKDSQPRGMAVTISVKSEKISTLSSENKIISFKEMNPPDNIKDTKSDIIFFQRSVPGHDNKMQFESSSYEGYFLASEKERDLFKLILKKEDELGDRSIMFTVQNED", "koff, s⁻¹": 0.0179}
{"binder": "Modified IL-18 polypeptide of SEQ ID NO: 71 (E6K, C38S, K53A) (ligand) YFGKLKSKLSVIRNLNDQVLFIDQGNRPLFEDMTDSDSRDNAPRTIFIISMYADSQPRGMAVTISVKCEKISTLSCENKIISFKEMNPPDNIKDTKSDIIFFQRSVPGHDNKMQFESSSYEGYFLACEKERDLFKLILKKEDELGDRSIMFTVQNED", "koff, s⁻¹": 0.0151}

**Q:** Consider the binder shown here: Modified IL-18 polypeptide of SEQ ID NO: 10 (E06K, K53A, S55A, T63A) (ligand) YFGKLKSKLSVIRNLNDQVLFIDQGNRPLFEDMTDSDCRDNAPRTIFIISMYADAQPRGMAVAISVKCEKISTLSCENKIISFKEMNPPDNIKDTKSDIIFFQRSVPGHDNKMQFESSSYEGYFLACEKERDLFKLILKKEDELGDRSIMFTVQNED What is its recorded koff?
**A:** 0.0496
